Exercise: state measured IC50 for each of the molecules provided.
# Test system: p-ERK in AsPC-1 cells (KRAS G12D mutation)
# experiment: Cell p-ERK assay (HTRF) in AsPC-1 cells
# Assay type: cell-based, human
# condition_details: Homo sapiens, ASPC1, 3 h, AsPC-1 cells, 3 h compound incubation, HTRF p-ERK T202/Y204; read-out: AsPC-1 p-ERK IC50

Task item: Read the entry CCn1c(-c2cc(C#CCN3CCCOCC3)c[n+]([O-])c2[C@H](C)O)c2c3cc(ccc31)-c1csc(n1)C[C@H](NC(=O)[C@H]1[C@H](C)[C@@H]1C)C(=O)N1CCC[C@H](N1)C(=O)OCC(C)(C)C2 (single isomer, unassigned) and write its reported IC50.
Reply: 0.95 nM

Task item: Read the entry CCn1c(-c2cc(CCN3CCS(=O)(=O)CC3)cnc2[C@H](C)OC)c2c3cc(ccc31)-c1csc(n1)C[C@H](NC(=O)[C@H]1[C@H](C)[C@@H]1C)C(=O)N1CCC[C@H](N1)C(=O)OCC(C)(C)C2 (atropisomer, axis not shown; (Ra)) and write its reported IC50.
Reply: 0.73 nM

Task item: Read the entry CCn1c(-c2cc(C#CCN3CCOC4(CC4)C3)cnc2[C@H](C)OC)c2c3cc(ccc31)-c1csc(n1)C[C@H](NC(=O)[C@H]1[C@H](C)[C@@H]1C)C(=O)N1CCC[C@H](N1)C(=O)OCC(C)(C)C2 and write its reported IC50.
Reply: 0.12 nM

Task item: Read the entry CCn1c(-c2cc(C#C[C@@]3(C)CCCN3C)cnc2[C@H](C)OC)c2c3cc(ccc31)-c1csc(n1)C[C@H](NC(=O)[C@H]1[C@H](C)[C@@H]1C)C(=O)N1CCC[C@H](N1)C(=O)OCC(C)(C)C2 (atropisomer, axis not shown; (Ra)) and write its reported IC50.
Reply: 0.51 nM

----------
Exercise: state measured IC50 for each of the compounds provided.
# Test system: p-ERK in NCI-H441 cells (KRAS G12V mutation)
# experiment: Cell p-ERK assay (HTRF) in NCI-H441 cells
# Format: cell-based, human
# condition_details: NCI-H441 cells, 3 h compound incubation, HTRF p-ERK T202/Y204; read-out: H441 p-ERK IC50
# number only, unit nM dropped from output

Task item: Read the entry CCn1c(-c2cc(N3CCN(C)CC3)cnc2[C@H](C)OC)c2c3cc(ccc31)-c1csc(n1)C[C@H](NC(=O)C(C)(C)F)C(=O)N1CCC[C@H](N1)C(=O)OCC(C)(C)C2 (single isomer, unassigned) [Compound Z5] and write its reported IC50.
Reply: 4.24

Task item: Read the entry CCn1c(-c2cc(OCCN3CCS(=O)(=O)CC3)cnc2[C@H](C)OC)c2c3cc(ccc31)-c1csc(n1)C[C@H](NC(=O)[C@H]1[C@H](C)[C@@H]1C)C(=O)N1CCC[C@H](N1)C(=O)OCC(C)(C)C2 (atropisomer, axis not shown; (Sa)) [Compound Z470] and write its reported IC50.
Reply: 69.4

----------
# Tested on: p-ERK in AsPC-1 cells (KRAS G12D mutation)
# experiment: Cell p-ERK assay (HTRF) in AsPC-1 cells
# Format: cell-based, human
# condition_details: Homo sapiens, ASPC1, 3 h, AsPC-1 cells, 3 h compound incubation, HTRF p-ERK T202/Y204; read-out: AsPC-1 p-ERK IC50
Flag rule - IC50 less than 1 nM flags T; the remaining entries get F.

Task item: # strict comparison: is reported IC50 < 1 nM? input = CCn1c(-c2cc(C#CCN3CCCOCC3)cnc2[C@H](C)OC)c2c3cc(ccc31)-c1csc(n1)C[C@H](NC(=O)CC1CC1)C(=O)N1CCC[C@H](N1)C(=O)OCC(C)(C)C2 (atropisomer, axis not shown; (Ra))
Reply: F

Task item: # strict comparison: is reported IC50 < 1 nM? input = CCn1c(-c2cc(OCCN3CCOC4(CC4)C3)cnc2[C@H](C)OC)c2c3cc(ccc31)-c1csc(n1)C[C@H](NC(=O)[C@H]1[C@H](C)[C@@H]1C)C(=O)N1CCC[C@H](N1)C(=O)OCC(C)(C)C2 (atropisomer, axis not shown; (Sa))
Reply: T

Task item: # strict comparison: is reported IC50 < 1 nM? input = CCn1c(-c2cc(C#CCN3CCC3)cnc2[C@H](C)OC)c2c3cc(ccc31)-c1csc(n1)C[C@H](NC(=O)CC1CC1)C(=O)N1CCC[C@H](N1)C(=O)OCC(C)(C)C2
Reply: F

Task item: # strict comparison: is reported IC50 < 1 nM? input = CCn1c(-c2cc([C@H]3CCN4CCOC[C@H]4C3)cnc2[C@H](C)OC)c2c3cc(ccc31)-c1csc(n1)C[C@H](NC(=O)[C@H]1[C@H](C)[C@@H]1C)C(=O)N1CCC[C@H](N1)C(=O)OCC1(CC1)C2 (single isomer, unassigned)
Reply: F

Task item: # strict comparison: is reported IC50 < 1 nM? input = CCn1c(-c2cc(OCCN3CCOCC34CC4)cnc2[C@H](C)OC)c2c3cc(ccc31)-c1csc(n1)C[C@H](NC(=O)C1[C@@H](C)[C@H]1C)C(=O)N1CCC[C@H](N1)C(=O)OCC1(CC1)C2 (stereo partly drawn)
Reply: F

Task item: # strict comparison: is reported IC50 < 1 nM? input = CCc1ccn2c(N[C@H]3Cc4nc(cs4)-c4ccc5c(c4)c(c(-c4cc(N6CCN(C)CC6)cnc4[C@H](C)OC)n5CC)CC(C)(C)COC(=O)[C@@H]4CCCN(N4)C3=O)nnc2c1 (atropisomer, axis not shown; (Ra))
Reply: F

Task item: # strict comparison: is reported IC50 < 1 nM? input = CCn1c(-c2cc(C#CCN3CCN(C)CC3)cnc2[C@H](C)OC)c2c3cc(ccc31)-c1csc(n1)C[C@H](NC(=O)[C@H]1[C@H](C)[C@@H]1C)C(=O)N1CCC[C@H](N1)C(=O)OCC(C)(C)C2 (atropisomer, axis not shown; (Ra))
Reply: T

Task item: # strict comparison: is reported IC50 < 1 nM? input = CCn1c(-c2cc(N3CCN(C)CC3)cnc2[C@H](C)OC)c2c3cc(ccc31)-c1csc(n1)C[C@H](Nc1cc(C)cnn1)C(=O)N1CCC[C@H](N1)C(=O)OCC(C)(C)C2
Reply: F

Task item: # strict comparison: is reported IC50 < 1 nM? input = CCn1c(-c2cc(C3(C(=O)N4CCN(C)CC4)CC3)cnc2[C@H](C)OC)c2c3cc(ccc31)-c1csc(n1)C[C@H](NC(=O)[C@H]1[C@H](C)[C@@H]1C)C(=O)N1CCC[C@H](N1)C(=O)OCC(C)(C)C2
Reply: F

----------
Exercise: state measured IC50 for each of the compounds provided.
# System: p-ERK in AsPC-1 cells (KRAS G12D mutation)
# experiment: Cell p-ERK assay (HTRF) in AsPC-1 cells
# Format: cell-based, human
# condition_details: Homo sapiens, ASPC1, 3 h, AsPC-1 cells, 3 h compound incubation, HTRF p-ERK T202/Y204; read-out: AsPC-1 p-ERK IC50
# number only, unit nM dropped from output

Task item: Read the entry CCn1c(-c2cc(OCC3(CN4CCCOCC4)CC3)cnc2[C@H](C)OC)c2c3cc(ccc31)-c1csc(n1)C[C@H](NC(=O)[C@H]1[C@H](C)[C@@H]1C)C(=O)N1CCC[C@H](N1)C(=O)OCC1(CC1)C2 (atropisomer, axis not shown; (Ra)) and write its reported IC50.
Reply: 10.9

Task item: Read the entry CCn1c(-c2cc(C#CCN3CCCN(C)CC3)cnc2[C@H](C)OC)c2c3cc(ccc31)-c1csc(n1)C[C@H](NC(=O)[C@H]1[C@H](C)[C@@H]1C)C(=O)N1CCC[C@H](N1)C(=O)OCC(C)(C)C2 (atropisomer, axis not shown; (Ra)) and write its reported IC50.
Reply: 0.2

Task item: Read the entry CCn1c(-c2cc(N3CCN(C)CC3)cnc2[C@H](C)OC)c2c3cc(ccc31)-c1csc(n1)C[C@H](Nc1nnc3cc(C)ccn13)C(=O)N1CCC[C@H](N1)C(=O)OCC(C)(C)C2 (atropisomer, axis not shown; (Ra)) and write its reported IC50.
Reply: 13.4

Task item: Read the entry CCn1c(-c2cc(C#CCN3CCC(N=S(C)(C)=O)CC3)cnc2[C@H](C)OC)c2c3cc(ccc31)-c1csc(n1)C[C@H](NC(=O)[C@H]1[C@H](C)[C@@H]1C)C(=O)N1CCC[C@H](N1)C(=O)OCC(C)(C)C2 and write its reported IC50.
Reply: 0.36

----------
Exercise: state measured AUC for each of the compounds provided.
# experiment: Pharmacokinetic study in rats
# Format: in vivo, Sprague-Dawley (SD) rats
# condition_details: male SD rats, PO (intragastric), dose 10 mg/kg
Note: state the figure and append the unit.

Task item: Read the entry CCn1c(-c2cc(C#CCN(C)CCOC)cnc2[C@H](C)OC)c2c3cc(ccc31)-c1csc(n1)C[C@H](NC(=O)[C@H]1[C@H](C)[C@@H]1C)C(=O)N1CCC[C@H](N1)C(=O)OCC(C)(C)C2 (atropisomer, axis not shown; (Ra)) and write its reported AUC.
Reply: 8.529 µg·h/mL

Task item: Read the entry CCn1c(-c2cc(C#CCN3CCCOCC3)cnc2C(C)C)c2c3cc(ccc31)-c1csc(n1)C[C@H](NC(=O)[C@H]1[C@H](C)[C@@H]1C)C(=O)N1CCC[C@H](N1)C(=O)OCC(C)(C)C2 (atropisomer, axis not shown; (Sa)) and write its reported AUC.
Reply: 29.002 µg·h/mL

Task item: Read the entry CO[C@@H](C)c1ncc(C#CCN2CCCOCC2)cc1-c1c2c3cc(ccc3n1CC(F)(F)F)-c1csc(n1)C[C@H](NC(=O)[C@H]1[C@H](C)[C@@H]1C)C(=O)N1CCC[C@H](N1)C(=O)OCC(C)(C)C2 (atropisomer, axis not shown; (Ra)) and write its reported AUC.
Reply: 3.259 µg·h/mL

Task item: Read the entry CCn1c(-c2cc(C#CCN3C4CCC3COC4)cnc2[C@H](C)OC)c2c3cc(ccc31)-c1csc(n1)C[C@H](NC(=O)[C@H]1[C@H](C)[C@@H]1C)C(=O)N1CCC[C@H](N1)C(=O)OCC(C)(C)C2 (atropisomer, axis not shown; (Ra)) and write its reported AUC.
Reply: 8.876 µg·h/mL

Task item: Read the entry CCn1c(-c2cc(C#CCN3CCOC[C@H]3C)cnc2[C@H](C)OC)c2c3cc(ccc31)-c1csc(n1)C[C@H](NC(=O)[C@H]1[C@H](C)[C@@H]1C)C(=O)N1CCCC(N1)C(=O)OCC(C)(C)C2 (atropisomer, axis not shown; (Ra)) and write its reported AUC.
Reply: 1.643 µg·h/mL
